PROTOCOL DESCRIPTION: HUVEC nuclei count loss under TNFa – imaging, Hoechst nuclei count, cytotoxicity control for VCAM1 expression modulator project, primary screen (AID 848);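 further: cells counted after 24 h of TNF alpha exposure following the 1 h pretreatment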
MEASUREMENT CONTEXT: HUVEC TNFalpha-stimulated, at 2 µM, hits give high values
Screen size: about 93,000 compounds; about 160 (0.17%) were called active. This excerpt belongs to a sample that is enriched for actives.
Entries and their measured cell count reduction follow.
Give the quantity in %, number only.

Would you please look over these solved cases?
CPD SMILES | cell count reduction (%)
CCOC(=O)c1nc(C)n(-c2ccc(Cl)cc2Cl)n1 | -3.8
O=C(Nc1ccccc1Cl)O/N=C(/c1ccccc1)c1ccccn1 | 9.5
CCCCOC(=O)Cn1c(=O)n(CC(=O)OCCCC)c2cc(C)ccc21 | -29.5

Lab book: cell count reduction of CCC(=O)NCCc1nc2ccccc2n1CC noted as 14.3

Lab book: cell count reduction of CC(C)(C)c1ccc(OC2=CS(=O)(=O)c3ccccc32)cc1 noted as -12

Lab book: cell count reduction of CCOC(=O)N1CCN(C(=O)COc2ccc(Br)cc2)CC1 noted as -23.5
